Test system: UACC-257
Test: NCI tumour cell line growth inhibition, 48 h
The whole screen tested about 57,000 sequences, of which about 2,500 (4.4%) were called active. Only a sample is shown. Potency and affinity values are given separately.
Field: GI50. Provide a value for each of the substances that follow.
State just the number; it will be interpreted in µM.

Task item: For cis-Bis[[(trimethylsilyl)methyl]amino]tetrachloroplatinum(IV), CHEMBL2146191 , write its GI50.
Reply: 5.31

Task item: State its GI50: CISPLATIN, CHEMBL11359
Reply: 4.09

Task item: Report GI50 for [Bis(aminomethyl)pentamethylenesilane]tetrachloropaltinum(IV), CHEMBL2146204
Reply: 7.19

Task item: Note GI50 for the substance shown: [Bis(aminomethyl)ethylmethylsilane]tetrachloroplatinum(IV), CHEMBL2146192
Reply: 3.3

Task item: Provide one value: measured GI50 of [Bis(aminomethyl)dimethylsilane]dichloroplatinum (II), CHEMBL2146201
Reply: 45.7

Task item: State, in one line, measured GI50 of [Bis(aminomethyl)dimethylsilane]tetrachloroplatinum(IV), CHEMBL2146190
Reply: 15.1

Task item: Specify GI50 for [Bis(aminomethyl)tetramethylenesilane]dichloropaltinum(II), CHEMBL2146205 and stop.
Reply: 59.7

Task item: // Input: mu-(1,7-nanodiamine-N,N')bis-(cis-aminedichloroplatimum (II)), CHEMBL2146215 . Output its GI50 only.
Reply: 20.1

Task item: Return the recorded GI50 value; entry: [Bis(aminomethyl)pentamethylenesilane]dichloropaltinum(II), CHEMBL2146202
Reply: 6.81
